# Tested on: Enterobacter cloacae
# Procedure: MICs of the lipopeptides (trifluoroacetic acid salt, TFA) were determined by broth microdilution in cation-adjusted Mueller-Hinton broth (CAMHB) (Oxoid Australia, Thebarton, SA, Australia) according to Clinical and Laboratory Standards Institute standards (Clinical and Laboratory Standards Institute. Performance standards for antimicrobial susceptibility testing; eighteenth informational supplement M100-S18. Wayne, Pa., 2008). Polymyxin B (sulphate) was employed as control. […]
Positions of bridges follow the written chain, without caps; N, C: chain ends. Non-standard residues stand in square brackets, D forms with d. Residues, ends and D or L forms follow the SMILES beside them. *: point of attachment. Benzoyl(3-CF3) = O=C(c1cccc(C(F)(F)F)c1)*; X10 = O=C(c1cc(F)cc(Cl)c1)*; dNle = CCCC[C@@H](N)C(=O)O; Dab = NCC[C@H](N)C(=O)O; Abu = CC[C@H](N)C(=O)O; Dap = NC[C@H](N)C(=O)O; Hexanoyl = CCCCCC(=O)*
What Minimum inhibitory concentration, Ec FADDI-EC001 was measured for each of the following?
Write the answer as a number in µg/mL, unit excluded.

INPUT: // Minimum inhibitory concentration, Ec FADDI-EC001 lookup, key: CC[C@@H]1NC(=O)[C@@H](CC(C)C)NC(=O)[C@H](CCN)NC(=O)[C@@H](NC(=O)[C@H](CN)NC(=O)[C@@H](NC(=O)[C@H](CCN)NC(=O)c2cc(F)cc(Cl)c2)[C@@H](C)O)CCNC(=O)[C@H]([C@@H](C)O)NC(=O)[C@H](CCN)NC(=O)[C@H](CCN)NC1=O [Compound 116] (X10-[Dab]T[Dap][Dab][Dab][dL][Abu][Dab][Dab]T; lactam 4-C)
OUTPUT: 0.25

INPUT: Please give the measured Minimum inhibitory concentration, Ec FADDI-EC001 for this compound: CCCCCC(=O)N[C@@H](CCN)C(=O)N[C@H](C(=O)N[C@H](CO)C(=O)N[C@H]1CCNC(=O)[C@H]([C@@H](C)O)NC(=O)[C@H](CCN)NC(=O)[C@H](CCN)NC(=O)[C@H]([C@@H](C)O)NC(=O)[C@@H](CC(C)C)NC(=O)[C@H](CCN)NC1=O)[C@@H](C)O [Compound 8] (Hexanoyl-[Dab]T[dS][Dab][Dab][dL]T[Dab][Dab]T; lactam 4-C)
OUTPUT: 0.25

INPUT: Request the reported Minimum inhibitory concentration, Ec FADDI-EC001 associated with CCCC[C@H]1NC(=O)[C@H](CCN)NC(=O)[C@@H](NC(=O)[C@H](CN)NC(=O)[C@@H](NC(=O)[C@H](CCN)NC(=O)c2cccc(C(F)(F)F)c2)[C@@H](C)O)CCNC(=O)[C@H]([C@@H](C)O)NC(=O)[C@H](CCN)NC(=O)[C@H](CCN)NC(=O)[C@H](CC)NC1=O [Compound 121] ({Benzoyl(3-CF3)}-[Dab]T[Dap][Dab][Dab][dNle][Abu][Dab][Dab]T; lactam 4-C)
OUTPUT: 0.25

====

Provide the reported Minimum inhibitory concentration, Ec FADDI-EC003 of each item.
# Tested on: Enterobacter cloacae
# Protocol: MICs of the lipopeptides (trifluoroacetic acid salt, TFA) were determined by broth microdilution in cation-adjusted Mueller-Hinton broth (CAMHB) (Oxoid Australia, Thebarton, SA, Australia) according to Clinical and Laboratory Standards Institute standards (Clinical and Laboratory Standards Institute. Performance standards for antimicrobial susceptibility testing; eighteenth informational supplement M100-S18. Wayne, Pa., 2008). Polymyxin B (sulphate) was employed as control. […]
Positions of bridges follow the written chain, without caps; N, C: chain ends. Non-standard residues stand in square brackets, D forms with d. Residues, ends and D or L forms follow the SMILES beside them. *: point of attachment. Octanoyl = CCCCCCCC(=O)*; X42 = Cc1ccc(C(=O)*)cc1F; Dab = NCC[C@H](N)C(=O)O; Abu = CC[C@H](N)C(=O)O; Dap = NC[C@H](N)C(=O)O
Field: numeric (µg/mL). Do not append units.

INPUT: # query: Minimum inhibitory concentration, Ec FADDI-EC003 of entry CCCCCCCC(=O)N[C@@H](CCN)C(=O)N[C@H](C(=O)N[C@@H](CCN)C(=O)N[C@H]1CCNC(=O)[C@H]([C@@H](C)O)NC(=O)[C@H](CCN)NC(=O)[C@H](CCN)NC(=O)[C@H](C)NC(=O)[C@@H](CC(C)C)NC(=O)[C@H](CCN)NC1=O)[C@@H](C)O [Compound 21] (Octanoyl-[Dab]T[Dab][Dab][Dab][dL]A[Dab][Dab]T; lactam 4-C)
OUTPUT: 0.125

INPUT: Find the recorded Minimum inhibitory concentration, Ec FADDI-EC003 belonging to CC[C@@H]1NC(=O)[C@@H](CC(C)C)NC(=O)[C@H](CCN)NC(=O)[C@@H](NC(=O)[C@H](CN)NC(=O)[C@@H](NC(=O)[C@H](CCN)NC(=O)c2ccc(C)c(F)c2)[C@@H](C)O)CCNC(=O)[C@H]([C@@H](C)O)NC(=O)[C@H](CCN)NC(=O)[C@H](CCN)NC1=O [Compound 102] (X42-[Dab]T[Dap][Dab][Dab][dL][Abu][Dab][Dab]T; lactam 4-C) and report it.
OUTPUT: 0.5

====

Positions of bridges follow the written chain, without caps; N, C: chain ends. Non-standard residues stand in square brackets, D forms with d. Residues, ends and D or L forms follow the SMILES beside them. *: point of attachment. Nonanoyl = CCCCCCCCC(=O)*; X26 = Cc1ccc(CC(=O)*)cc1C; Dab = NCC[C@H](N)C(=O)O; Abu = CC[C@H](N)C(=O)O; Dap = NC[C@H](N)C(=O)O
measure: Minimum inhibitory concentration, Ec FADDI-EC003

INPUT: Please provide the recorded Minimum inhibitory concentration, Ec FADDI-EC003 for CC[C@@H]1NC(=O)[C@@H](CC(C)C)NC(=O)[C@H](CCN)NC(=O)[C@@H](NC(=O)[C@H](CN)NC(=O)[C@@H](NC(=O)[C@H](CCN)NC(=O)Cc2ccc(C)c(C)c2)[C@@H](C)O)CCNC(=O)[C@H]([C@@H](C)O)NC(=O)[C@H](CCN)NC(=O)[C@H](CCN)NC1=O [Compound 103] (X26-[Dab]T[Dap][Dab][Dab][dL][Abu][Dab][Dab]T; lactam 4-C) , tested on Enterobacter cloacae.
OUTPUT: <0.125 µg/mL

INPUT: Observed Minimum inhibitory concentration, Ec FADDI-EC003 on Enterobacter cloacae for CCCCCCCCC(=O)N[C@@H](CCN)C(=O)N[C@H](C(=O)N[C@@H](CCN)C(=O)N[C@H]1CCNC(=O)[C@H]([C@@H](C)O)NC(=O)[C@H](CCN)NC(=O)[C@H](CCN)NC(=O)[C@H]([C@@H](C)O)NC(=O)[C@@H](CC(C)C)NC(=O)[C@H](CCN)NC1=O)[C@@H](C)O [Compound 43] (Nonanoyl-[Dab]T[Dab][Dab][Dab][dL]T[Dab][Dab]T; lactam 4-C) , please.
OUTPUT: <0.125 µg/mL

INPUT: # query: Minimum inhibitory concentration, Ec FADDI-EC003 | item CCCCCCCCC(=O)N[C@@H](CCN)C(=O)N[C@H](C(=O)N[C@@H](CN)C(=O)N[C@H]1CCNC(=O)[C@H]([C@@H](C)O)NC(=O)[C@H](CCN)NC(=O)[C@H](CCN)NC(=O)[C@H](C)NC(=O)[C@@H](CC(C)C)NC(=O)[C@H](CCN)NC1=O)[C@@H](C)O [Compound 132] (Nonanoyl-[Dab]T[Dap][Dab][Dab][dL]A[Dab][Dab]T; lactam 4-C) | system: Enterobacter cloacae
OUTPUT: <0.125 µg/mL

====

Would you kindly list Minimum inhibitory concentration, Ec FADDI-EC001 for each of these molecules?
Positions of bridges follow the written chain, without caps; N, C: chain ends. Non-standard residues stand in square brackets, D forms with d. Residues, ends and D or L forms follow the SMILES beside them. *: point of attachment. X9 = Cc1ccc(C(=O)*)cc1C(F)(F)F; Nonanoyl = CCCCCCCCC(=O)*; Octanoyl = CCCCCCCC(=O)*; Dab = NCC[C@H](N)C(=O)O; Abu = CC[C@H](N)C(=O)O; Dap = NC[C@H](N)C(=O)O
Respond numerically; units are µg/mL and should not be typed.

INPUT: Item CC[C@@H]1NC(=O)[C@@H](CC(C)C)NC(=O)[C@H](CCN)NC(=O)[C@@H](NC(=O)[C@H](CN)NC(=O)[C@@H](NC(=O)[C@H](CCN)NC(=O)c2ccc(C)c(C(F)(F)F)c2)[C@@H](C)O)CCNC(=O)[C@H]([C@@H](C)O)NC(=O)[C@H](CCN)NC(=O)[C@H](CCN)NC1=O [Compound 113] (X9-[Dab]T[Dap][Dab][Dab][dL][Abu][Dab][Dab]T; lactam 4-C) with Enterobacter cloacae - Minimum inhibitory concentration, Ec FADDI-EC001?
OUTPUT: 1

INPUT: Query for Enterobacter cloacae: what Minimum inhibitory concentration, Ec FADDI-EC001 does the record show for CCCCCCCCC(=O)N[C@@H](CCN)C(=O)N[C@H](C(=O)N[C@@H](CN)C(=O)N[C@H]1CCNC(=O)[C@H]([C@@H](C)O)NC(=O)[C@H](CCN)NC(=O)[C@H](CCN)NC(=O)[C@H](CC)NC(=O)[C@@H](CC(C)C)NC(=O)[C@H](CCN)NC1=O)[C@@H](C)O [Compound 59] (Nonanoyl-[Dab]T[Dap][Dab][Dab][dL][Abu][Dab][Dab]T; lactam 4-C) ?
OUTPUT: 1

INPUT: Request - read-out Minimum inhibitory concentration, Ec FADDI-EC001 | tested on Enterobacter cloacae | molecule CCCCCCCC(=O)N[C@@H](CCN)C(=O)N[C@H](C(=O)N[C@H](CO)C(=O)N[C@H]1CCNC(=O)[C@H]([C@@H](C)O)NC(=O)[C@H](CCN)NC(=O)[C@H](CCN)NC(=O)[C@H](C(C)C)NC(=O)[C@@H](CC(C)C)NC(=O)[C@H](CCN)NC1=O)[C@@H](C)O [Compound 5] (Octanoyl-[Dab]T[dS][Dab][Dab][dL]V[Dab][Dab]T; lactam 4-C)
OUTPUT: 0.25
